Can you tell me kon for the items I'm about to list?
# assayedTarget: T1, mouse serum albumin (mouse, UniProt P07724 25-608)
# T1 construct: Bought protein, immobilized on a CM5 chip by amine coupling; also called Mouse SA
# experimentNotes: SPR (Biacore 8K), albumin immobilized on CM5 chip, 25 C, 1:1 kinetic fit
# Protocol: The immobilization of the serum albumin to a Series S Sensor Chip CM5 surface is performed according to the manufacturer's instructions (Amine Coupling Kit BR-1000-50). Briefly, carboxyl groups on the sensor chip surfaces (flow cell 1 and 2) are activated by injecting 70 μL of a mixture containing 75 mg/mL EDC and 11.5 mg/mL NHS at 10 μL/min. […]
Report only the number, with the unit M⁻¹ s⁻¹ understood.

Entry RLN Analog 14 (other, Single-chain fusion: VHH - (PGPQ)8 L1 - RLN2 A chain (desA1-4) - L2 - RLN2 B chain (desB1)) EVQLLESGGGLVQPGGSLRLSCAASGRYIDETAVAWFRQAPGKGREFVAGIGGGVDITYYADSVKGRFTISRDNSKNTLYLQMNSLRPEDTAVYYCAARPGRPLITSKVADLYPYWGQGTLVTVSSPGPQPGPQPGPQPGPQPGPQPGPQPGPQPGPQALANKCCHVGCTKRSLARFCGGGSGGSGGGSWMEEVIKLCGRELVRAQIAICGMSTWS — recorded kon = 1.5e+06

For reference, reported kon for RLN Analog 10 (other, Single-chain fusion: RLN2 B chain (desB1) - L2 - RLN2 A chain - (PGPQ)8 L1 - VHH (C-terminal)) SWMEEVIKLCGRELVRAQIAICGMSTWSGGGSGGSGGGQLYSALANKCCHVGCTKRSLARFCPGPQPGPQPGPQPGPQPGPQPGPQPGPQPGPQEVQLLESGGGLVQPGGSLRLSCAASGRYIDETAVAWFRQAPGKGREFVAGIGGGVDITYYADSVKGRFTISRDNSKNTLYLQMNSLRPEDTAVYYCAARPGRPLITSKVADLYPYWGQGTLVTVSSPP stands at 740000

Looking up RLN Analog 1 (other) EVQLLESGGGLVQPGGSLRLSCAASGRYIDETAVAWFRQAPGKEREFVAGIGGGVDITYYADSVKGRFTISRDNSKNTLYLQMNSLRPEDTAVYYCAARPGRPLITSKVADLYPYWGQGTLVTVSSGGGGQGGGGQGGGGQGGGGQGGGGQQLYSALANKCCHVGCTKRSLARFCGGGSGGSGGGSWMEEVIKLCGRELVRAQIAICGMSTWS , I found its kon recorded as 1.3e+06

Recorded kon (binder RLN Analog 8 (other, Single-chain fusion: VHH - (PGPQ)8 L1 - RLN2 B chain (desB1) - L2 - RLN2 A chain) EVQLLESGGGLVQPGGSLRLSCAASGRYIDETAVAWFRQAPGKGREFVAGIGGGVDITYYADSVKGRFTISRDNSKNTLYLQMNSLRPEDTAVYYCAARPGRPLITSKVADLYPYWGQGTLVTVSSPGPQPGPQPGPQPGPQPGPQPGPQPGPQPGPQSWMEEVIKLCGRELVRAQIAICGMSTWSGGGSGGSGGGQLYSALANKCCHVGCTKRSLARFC ): 2.2e+06
